Values were extracted from ChEMBL document CHEMBL5352406.

# measurementProtocol: Acute toxicity in Kunming mouse assessed as survival at 30 mg/kg, po measured for 2 weeks
# Format: organism-based
# assayContext: in vivo

smilesRepr: Cl.N[C@H]1CCN(c2c3c(nc4ccc(-c5ccnc(NC(=O)C6CC6)n5)cc24)CCCCC3)C1
valueUnit: %
survival at 336 h: 100

* * *

# measurementProtocol: Cmax in Sprague-Dawley rat at 20 mg/kg, po
# Type: ADME, organism-based
# Design: dose 20 mg/kg, route po
# assayContext: in vivo

smilesRepr: Cl.N[C@H]1CCN(c2c3c(nc4ccc(-c5ccnc(NC(=O)C6CC6)n5)cc24)CCCCC3)C1
Cmax (ng/mL): 67.8
